system: TMD5; test: selective drug sensitivity score (sDSS, relative to normal bone marrow) (sDSS (score)); higher = more potent and effective on the cell line relative to normal bone marrow cells; details: 72 h;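 also: ALL cell lines in 384-well plates, five doses spanning 10,000-fold, each plate scaled between vehicle and 100 µmol/L benzalkonium chloride controls, sDSS an adapted area-under-curve metric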
QUANTITY_KIND: selective drug sensitivity score
I only need the number, thanks.

The measured selective drug sensitivity score associated with CN(C)C(=O)c1cc2cnc(Nc3ccc(N4CCNCC4)cn3)nc2n1C1CCCC1 [Ribociclib] (top concentration 10000 nM) reads 0.78

The measured selective drug sensitivity score associated with O=C(c1ccc(F)c(F)c1Nc1ccc(I)cc1F)N1CC(O)([C@@H]2CCCCN2)C1 [Cobimetinib] (top concentration 1000 nM) reads 1.32

The measured selective drug sensitivity score associated with C[C@@H]1CN(Cc2ccc(F)cc2)[C@@H](C)CN1C(=O)c1cc2c(C(=O)C(=O)N(C)C)cn(C)c2cc1Cl [Talmapimod] (top concentration 10000 nM) reads 0
